Biological target: δ-opioid receptor (Rattus norvegicus)
Construct: displacement of the radioligands from the rat brain membrane preparations; from tissue; host or cells: rat brain membrane preparations
Sequence (P33533 whole entry): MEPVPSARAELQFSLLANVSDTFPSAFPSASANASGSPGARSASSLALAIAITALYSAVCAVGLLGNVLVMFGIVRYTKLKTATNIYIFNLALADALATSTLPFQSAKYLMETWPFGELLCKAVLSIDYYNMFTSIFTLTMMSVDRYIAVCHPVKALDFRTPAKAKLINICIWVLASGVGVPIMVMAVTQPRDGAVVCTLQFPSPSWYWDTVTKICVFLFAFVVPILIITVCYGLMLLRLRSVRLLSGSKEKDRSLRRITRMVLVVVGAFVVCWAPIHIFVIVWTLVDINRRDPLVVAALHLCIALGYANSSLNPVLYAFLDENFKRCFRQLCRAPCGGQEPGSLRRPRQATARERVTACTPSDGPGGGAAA
Assay: biochemical
Type: binding
Non-standard residues stand in square brackets, D forms with d. Residues, ends and D or L forms follow the SMILES beside them. dNle = CCCC[C@@H](N)C(=O)O; dNva = CCC[C@@H](N)C(=O)O; Orn = NCCC[C@H](N)C(=O)O; Dab = NCC[C@H](N)C(=O)O
Please respond with reported Ki for every item in the list.
Please state the figure in µM; there is no need to write the unit.

Challenge: Respond only with Ki recorded for CCCC[C@@H](NC(=O)[C@@H](N)Cc1ccc(O)cc1)C(=O)N[C@@H](Cc1ccccc1)C(=O)N[C@@H](CCCCN)C(N)=O [BCH-2205, H-Tyr-D-Nle-Phe-Lys-NH2] (H-Y[dNle]FK-NH2)
Response given: 3.8

Challenge: Respond only with Ki recorded for CCC[C@@H](NC(=O)[C@@H](N)Cc1ccc(O)cc1)C(=O)N[C@@H](Cc1ccccc1)C(=O)N[C@@H](CCN)C(N)=O [BCH-2471, H-Tyr-D-Nva-Phe-A2 bu-NH2] (H-Y[dNva]F[Dab]-NH2)
Response given: 0.441

Challenge: Respond only with Ki recorded for NCC[C@H](NC(=O)[C@H](Cc1ccccc1)NC(=O)[C@@H](CO)NC(=O)[C@@H](N)Cc1ccc(O)cc1)C(N)=O [BCH-2469, H-Tyr-D-Ser-Phe-A2 bu-NH2] (H-Y[dS]F[Dab]-NH2)
Response given: 5.48

Challenge: Respond only with Ki recorded for C[C@@H](NC(=O)[C@@H](N)Cc1ccc(O)cc1)C(=O)N[C@@H](Cc1ccccc1)C(=O)N[C@@H](CCCN)C(N)=O [BCH-2219, H-Tyr-D-Ala-Phe-Orn-NH2] (H-Y[dA]F[Orn]-NH2)
Response given: 9.88

----------
Target: μ-opioid receptor (Rattus norvegicus, UniProt P33535)
Construct: displacement of the radioligands from the rat brain membrane preparations; from tissue; host or cells: rat brain membrane preparations
Sequence (P33535 whole entry): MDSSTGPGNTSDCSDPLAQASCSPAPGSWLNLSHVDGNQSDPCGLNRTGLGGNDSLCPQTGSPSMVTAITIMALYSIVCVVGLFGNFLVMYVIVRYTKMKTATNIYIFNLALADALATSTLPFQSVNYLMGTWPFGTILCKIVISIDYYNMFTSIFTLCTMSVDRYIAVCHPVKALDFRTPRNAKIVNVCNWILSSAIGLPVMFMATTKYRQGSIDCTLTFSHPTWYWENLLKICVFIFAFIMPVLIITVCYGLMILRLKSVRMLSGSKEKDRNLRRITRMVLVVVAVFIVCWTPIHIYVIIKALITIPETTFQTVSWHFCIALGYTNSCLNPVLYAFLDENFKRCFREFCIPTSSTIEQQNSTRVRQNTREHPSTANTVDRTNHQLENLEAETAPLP
Assay: biochemical
Type: binding
Non-standard residues stand in square brackets, D forms with d. Residues, ends and D or L forms follow the SMILES beside them. dNle = CCCC[C@@H](N)C(=O)O; dNva = CCC[C@@H](N)C(=O)O; Orn = NCCC[C@H](N)C(=O)O; Dab = NCC[C@H](N)C(=O)O
Please respond with reported Ki^δ /Ki^μ for every item in the list.

Challenge: Respond only with Ki^δ /Ki^μ recorded for CC[C@@H](C)[C@@H](NC(=O)[C@@H](N)Cc1ccc(O)cc1)C(=O)N[C@@H](Cc1ccccc1)C(=O)N[C@@H](CCCCN)C(N)=O [BCH-2203, H-Tyr-D-Ile-Phe-Lys-NH2] (H-Y[dI]FK-NH2)
Response given: > 338

Challenge: Respond only with Ki^δ /Ki^μ recorded for CC(C)[C@@H](NC(=O)[C@@H](N)Cc1ccc(O)cc1)C(=O)N[C@@H](Cc1ccccc1)C(=O)N[C@@H](CCN)C(N)=O [BCH-2467, H-Tyr-D-Val-Phe-A2 bu-NH2] (H-Y[dV]F[Dab]-NH2)
Response given: 1113.55

Challenge: Respond only with Ki^δ /Ki^μ recorded for CCCC[C@@H](NC(=O)[C@@H](N)Cc1ccc(O)cc1)C(=O)N[C@@H](Cc1ccccc1)C(=O)N[C@@H](CCN)C(N)=O [BCH-2472, H-Tyr-D-Nle-Phe-A2 bu-NH2] (H-Y[dNle]F[Dab]-NH2)
Response given: 207.88

Challenge: Respond only with Ki^δ /Ki^μ recorded for C[C@@H](NC(=O)[C@@H](N)Cc1ccc(O)cc1)C(=O)N[C@@H](Cc1ccccc1)C(=O)N[C@@H](CCCCN)C(N)=O [BCH-1789, H-Tyr-D-Ala-Phe-Lys-NH2] (H-Y[dA]FK-NH2)
Response given: 133

Challenge: Respond only with Ki^δ /Ki^μ recorded for C[C@@H](NC(=O)[C@@H](N)Cc1ccc(O)cc1)C(=O)N[C@@H](Cc1ccccc1)C(=O)N[C@@H](CCN)C(N)=O [BCH-2470, H-Tyr-D-Ala-Phe-A2 bu-NH2] (H-Y[dA]F[Dab]-NH2)
Response given: 630.58

Challenge: Respond only with Ki^δ /Ki^μ recorded for NCCCC[C@H](NC(=O)[C@H](Cc1ccccc1)NC(=O)[C@@H](Cc1ccccc1)NC(=O)[C@@H](N)Cc1ccc(O)cc1)C(N)=O [BCH-2460, H-Tyr-D-Phe-Phe-Lys-NH2] (H-Y[dF]FK-NH2)
Response given: 99.47

Challenge: Respond only with Ki^δ /Ki^μ recorded for C[C@@H](NC(=O)[C@@H](N)Cc1ccc(O)cc1)C(=O)N[C@@H](Cc1ccccc1)C(=O)N[C@@H](CCCN)C(N)=O [BCH-2219, H-Tyr-D-Ala-Phe-Orn-NH2] (H-Y[dA]F[Orn]-NH2)
Response given: 924.51

Challenge: Respond only with Ki^δ /Ki^μ recorded for CCC[C@@H](NC(=O)[C@@H](N)Cc1ccc(O)cc1)C(=O)N[C@@H](Cc1ccccc1)C(=O)N[C@@H](CCN)C(N)=O [BCH-2471, H-Tyr-D-Nva-Phe-A2 bu-NH2] (H-Y[dNva]F[Dab]-NH2)
Response given: 790.51

Challenge: Respond only with Ki^δ /Ki^μ recorded for NCCC[C@H](NC(=O)[C@H](Cc1ccccc1)NC(=O)[C@@H](CO)NC(=O)[C@@H](N)Cc1ccc(O)cc1)C(N)=O [BCH-2461, H-Tyr-D-Ser-Phe-Orn-NH2] (H-Y[dS]F[Orn]-NH2)
Response given: 1210.57

Challenge: Respond only with Ki^δ /Ki^μ recorded for CC[C@@H](C)[C@@H](NC(=O)[C@@H](N)Cc1ccc(O)cc1)C(=O)N[C@@H](Cc1ccccc1)C(=O)N[C@@H](CCCN)C(N)=O [BCH-2456, H-Tyr-D-Ile-Phe-Orn-NH2] (H-Y[dI]F[Orn]-NH2)
Response given: 952.35

Challenge: Respond only with Ki^δ /Ki^μ recorded for CC(C)[C@@H](NC(=O)[C@@H](N)Cc1ccc(O)cc1)C(=O)N[C@@H](Cc1ccccc1)C(=O)N[C@@H](CCCCN)C(N)=O [BCH-2206, H-Tyr-D-Val-Phe-Lys-NH2] (H-Y[dV]FK-NH2)
Response given: > 384
